- Tested on: rice leafroller (Cnaphalocrocis medinalis)
- assay.comment: Insecticidal effect on rice leafroller (Test Example 3)
- Format: in vivo
- measurement.conditions: 500 ppm; rice lamina immersed; third-instar larvae of rice leafroller; four days after inoculation; 25° C., humidity 70%
readout.name: Insecticidal effect, Test Example 3

Cc1c(NC(=O)c2cccc(Cl)c2C(=O)NC(C)C)cccc1OC(F)(F)C(F)Cl (stereo not shown)	B (99-90)
Cc1c(Cl)cccc1NC(=O)c1ccc(Cl)cc1C(=O)NC(C)C	A (100)
CCOP(=O)(OCC)c1ccc(NC(=O)c2c(Cl)cccc2C(=O)NC(C)C)c(C)c1	A (100)
CC(C)NC(=O)c1c(I)cccc1C(=O)Nc1ccc(OC(F)(F)F)cc1	A (100)

QUERY: Answer with the recorded Insecticidal effect, Test Example 3 of Cc1cc(OC(F)(F)C(F)Cl)ccc1NC(=O)c1cccc(Br)c1C(=O)NC(C)C (stereo not shown) only.
RESULT: A (100)

QUERY: Answer with reported Insecticidal effect, Test Example 3 of CC(C)NC(=O)c1cccc(I)c1C(=O)Nc1ccc(Cl)cc1
RESULT: A (100)

---

- Tested on: rice leafroller (Cnaphalocrocis medinalis)
- assay.comment: Insecticidal effect on rice leafroller (Test Example 3)
- Type: in vivo
- measurement.conditions: 500 ppm; rice lamina immersed; third-instar larvae of rice leafroller; four days after inoculation; 25° C., humidity 70%
readout.name: Insecticidal effect, Test Example 3

CNC(=O)c1c(C(=O)Nc2ccc(OC(F)F)cc2C)cccc1[N+](=O)[O-] [compound 4]	D (79-50)
CC(C)NC(=O)c1c(Cl)cccc1C(=O)Nc1ccc(OC(F)F)c(F)c1 [compound 137]	A (100)
Cc1cc(Oc2ccc(C(F)(F)F)cn2)ccc1NC(=O)c1ccccc1C(=O)NC(C)C [compound 78]	A (100)
CC(C)NC(=O)c1ccccc1C(=O)Nc1ccc(C(F)(F)F)cc1 [compound 25]	A (100)
COc1ccc(NC(=O)c2cccc(I)c2C(=O)NC(C)C)c(C)c1 [compound 376]	A (100)
CC(C)NC(=O)c1cccc(I)c1C(=O)Nc1ccc(C(F)(C(F)(F)F)C(F)(F)F)cc1 [compound 416]	A (100)
CC(C)NC(=O)c1c(I)cccc1C(=O)Nc1ccc(C(F)(F)F)cc1Cl [compound 369]	A (100)
Cc1cc(C(F)(F)C(F)(F)C(F)(F)C(F)(F)F)ccc1NC(=O)c1cccc(Br)c1C(=O)NC(C)C [Compound No. 281]	A (100)

QUERY: Indicate its recorded Insecticidal effect, Test Example 3; the compound in question is CC(C)NC(=O)c1cccc(Br)c1C(=O)Nc1ccc(OC(F)(F)F)cc1 [Compound No. 302]
RESULT: D (79-50)

QUERY: Report Insecticidal effect, Test Example 3 for CC(C)NC(=O)c1c(I)cccc1C(=O)Nc1ccc(C(F)(F)F)cc1 [compound 349]
RESULT: A (100)

QUERY: Please give the documented Insecticidal effect, Test Example 3 of CC(C)NC(=O)c1ccccc1C(=O)Nc1ccc(C(F)(F)F)cc1Cl [compound 45]
RESULT: A (100)
